Overview of reported EC50 across a group of molecules:
- experimental_system: NAMPT enzyme (Homo sapiens (Human), UniProt P43490)
- Sequence (P43490 whole entry, species assumed): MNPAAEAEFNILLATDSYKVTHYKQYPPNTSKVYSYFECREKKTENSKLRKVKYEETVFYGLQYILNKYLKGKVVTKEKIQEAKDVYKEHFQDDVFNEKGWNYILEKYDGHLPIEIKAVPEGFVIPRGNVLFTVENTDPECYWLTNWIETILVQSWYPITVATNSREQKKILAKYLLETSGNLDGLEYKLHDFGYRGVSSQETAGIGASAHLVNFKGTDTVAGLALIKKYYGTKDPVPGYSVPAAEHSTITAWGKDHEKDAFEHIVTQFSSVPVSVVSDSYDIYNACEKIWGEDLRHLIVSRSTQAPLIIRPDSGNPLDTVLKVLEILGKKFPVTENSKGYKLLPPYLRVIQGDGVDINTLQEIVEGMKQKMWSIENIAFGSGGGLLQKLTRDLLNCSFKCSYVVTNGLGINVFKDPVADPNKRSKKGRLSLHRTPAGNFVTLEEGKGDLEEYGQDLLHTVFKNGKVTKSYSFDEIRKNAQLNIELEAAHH
- measurement_description: Enzyme Assay and NMN Detection (NAMPT reaction, fluorescence detection of NMN)
- Type: biochemical
- experimental_setup: Table B-1; NAMPT activation, NMN formation

smiles_string: O=C(NCc1cn[nH]c1)Nc1ccc(S(=O)(=O)NCc2ccccc2Cl)cc1
EC50: < 100 nM
--
smiles_string: COc1ccccc1S(=O)(=O)c1ccc(NC(=O)NCc2cn[nH]c2)cc1
EC50: < 100 nM
--
smiles_string: CN(C1CCCC1)S(=O)(=O)c1ccc(NC(=O)NCc2cn[nH]c2)cc1
EC50: 100 to 2000 nM
--
smiles_string: COc1ccc(NC(=O)c2ccc(NC(=O)NCc3cn[nH]c3)cc2)cc1
EC50: 100 to 2000 nM
--
smiles_string: O=C(NCc1cn[nH]c1)Nc1ccc(S(=O)(=O)NCc2ccc(Cl)cc2)cc1
EC50: 100 to 2000 nM
--
smiles_string: O=C(NCc1cn[nH]c1)Nc1ccc(S(=O)(=O)c2ccccc2Cl)cc1
EC50: < 100 nM
--
smiles_string: CCOC(=O)c1ccc(NC(=O)NCc2c[nH]nc2C)cc1
EC50: > 20000 nM
--
smiles_string: COc1ccccc1NC(=O)c1ccc(NC(=O)NCc2cn[nH]c2)cc1
EC50: 100 to 2000 nM

From: patent US11452717B2
